tested on: Staphylococcus aureus; assay: In vitro antibacterial activity was measured on gram positive bacteria Staphylococcus aureus smith cell lines; assay type: functional
Where a SMILES comes first, the peptide text is derived from it. The star is where a group is joined. X1 = C[C@H]1c2ccc(N*)c(O)c2C(=O)C2=C(O)[C@]3(O)C(O)=C(C(N)=O)C(=O)[C@@H](N(C)C)C3[C@@H](O)C21
Recorded MIC, one value per entry.
Report as a plain number; the unit µg/mL is understood.

COMPOUND	UNIT_OF_MEASUREMENT	MIC
CC(C)C[C@H](N)C(=O)NCC(=O)Nc1ccc2c(c1O)C(=O)C1=C(O)[C@]3(O)C(O)=C(C(N)=O)C(=O)[C@@H](N(C)C)C3[C@@H](O)C1[C@H]2C (stereo not given in full)	µg/mL	16
CC(C)C[C@@H](N)C(=O)Nc1ccc2c(c1O)C(=O)C1=C(O)[C@]3(O)C(O)=C(C(N)=O)C(=O)[C@@H](N(C)C)C3CC1C2 (stereo not given in full)	µg/mL	8
C[C@H]1c2ccc(NC(=O)[C@@H](N)Cc3c[nH]c4ccccc34)c(O)c2C(=O)C2=C(O)[C@]3(O)C(O)=C(C(N)=O)C(=O)[C@@H](N(C)C)C3[C@@H](O)C21 (stereo not given in full)	µg/mL	1
CC(C)C[C@H](NC(=O)[C@H](CC(C)C)NC(=O)[C@H](CC(C)C)NC(=O)[C@@H](N)CC(C)C)C(=O)Nc1ccc2c(c1O)C(=O)C1=C(O)[C@]3(O)C(O)=C(C(N)=O)C(=O)[C@@H](N(C)C)C3[C@@H](O)C1[C@H]2C (stereo not given in full) (H-LLLL-X1)	µg/mL	16

Let us move to another entry and its MIC.
Asked: Reported MIC, compound C[C@H]1c2ccc(NC=O)c(O)c2C(=O)C2=C(O)[C@]3(O)C(O)=C(C(N)=O)C(=O)[C@@H](N(C)C)C3[C@@H](O)C21 (stereo not given in full) : ____
Given back: 0.12

Entry source: ChEMBL document CHEMBL1127343
